B1: ZC3H15 (parent)
chain: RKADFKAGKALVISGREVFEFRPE

# Variants of: B1
# Method: protein stability index of a GFP-peptide fusion (GPS, HEK-293T) (PSI 1-6); higher = more stable;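 further: lentivirally expressed fusions sorted by FACS into six bins by GFP to DsRed ratio, PSI derived from sequencing read proportions per bin multiplied by bin number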
# Condition info: c terminus: a fixed tail appended
Measured protein stability index values are reported for all entries that follow.

>  <Variant label>
P23K

>  <protein stability index>
3.35

$$$$
>  <Variant label>
S14H

>  <protein stability index>
3.31

$$$$
>  <Variant label>
K6E

>  <protein stability index>
3.24

$$$$
>  <Variant label>
A3L

>  <protein stability index>
2.57

$$$$
>  <Variant label>
F19A

>  <protein stability index>
4.01

$$$$
>  <Variant label>
R22E

>  <protein stability index>
3.53

$$$$
>  <Variant label>
E20D

>  <protein stability index>
3.37

$$$$
>  <Variant label>
K6Y

>  <protein stability index>
2.87

$$$$
>  <Variant label>
I13Q

>  <protein stability index>
3.72

$$$$
>  <Variant label>
G15E

>  <protein stability index>
3.65

$$$$
>  <Variant label>
E17T

>  <protein stability index>
1.75

$$$$
>  <Variant label>
L11K

>  <protein stability index>
3.77

$$$$
>  <Variant label>
G8P

>  <protein stability index>
2.65

$$$$
>  <Variant label>
L11V

>  <protein stability index>
3.11

$$$$
>  <Variant label>
A10R

>  <protein stability index>
3.09

$$$$
>  <Variant label>
D4N

>  <protein stability index>
2.03

$$$$
>  <Variant label>
A3R

>  <protein stability index>
2.85

$$$$
>  <Variant label>
P23N

>  <protein stability index>
3.53

$$$$
>  <Variant label>
A10L

>  <protein stability index>
2.09

$$$$
>  <Variant label>
V18R

>  <protein stability index>
3.58

$$$$
>  <Variant label>
F19W

>  <protein stability index>
2.43

$$$$
>  <Variant label>
R16Y

>  <protein stability index>
1.54

$$$$

Data provenance: the supplement of paper PMC10567573
